Values of pIC50 for IRAK4 (Homo sapiens (Human), UniProt Q9NWZ3), collected from a number of published sources:
pIC50: −log10 of the molar value.
measured-property: pIC50

compound | observed
CS(=O)(=O)N1CCC(n2cc(NC(=O)c3cnn4ccc(N[C@H]5CCCC[C@H]5N)nc34)c(C(N)=O)n2)CC1 (relative stereo) | 8.70
CCCc1cn(-c2cnc(-n3ncc4cc(C#N)c(N)nc43)cc2NC2COC2)nn1 | 8.15
CC(C)Nc1cc(Nc2ccn3ncc(Cl)c3c2)ncc1C(=O)NC[C@@H](F)C(C)(C)O | 8.32

A. CC(C)Nc1cc(-n2ncc3cc(C#N)cnc32)ncc1-c1cnn(CC2COC2)c1
B. Cc1nsc2nc(Nc3cnn(CC(=O)O)c3)nc(N[C@H]3CC[C@H](N4CCOCC4)CC3)c12
C. NC(=O)c1ncccc1NC(=O)c1cnn2cccnc12
Task: Ascending by pIC50, please. Provide the labels, sequenced as the question asks.
Result: C, B, A

###

Values of pIC50 for IRAK4 (Homo sapiens (Human)), collected from a number of published sources:
pIC50: −log10 of the molar value.
measured-property: pIC50

Previously resolved entries follow.
molecule | pIC50
CC(C)Nc1cc(-c2ccc3cc(C#N)cnn23)ncc1-n1cc([C@H]2CC[C@H](NC(=O)OC(C)(C)C)CC2)nn1 | 8.70
COc1cc2nn(C3CCN(CCCN4CCC5(CC4)CCN(C(=O)c4ccc(OC)c(N6CCC(=O)NC6=O)c4)CC5)CC3)cc2cc1NC(=O)c1cccc(C(F)(F)F)n1 | 8.54
Nc1cc(-c2ccc3ncnc(N[C@H]4CC[C@H](N5CCCC(CN6CCOCC6)C5)CC4)c3c2)cnc1F (some centres unmarked) | 8.70
CCNc1cc(-n2ncc3cc(C#N)cnc32)ncc1C1=NOC(CCC(C)(C)O)C1 (centres unmarked) | 8.70
CCCn1cc(-c2cnc(-c3cnc4cc(Cl)cnn34)cc2Nc2cnn(CC(F)F)c2)cn1 | 7.54
COc1cc2nn(C3CCN(CCC4CCC5(CC4)CCN(C(=O)c4cccc(N6CCC(=O)NC6=O)c4)CC5)CC3)cc2cc1NC(=O)c1cccc(C(F)(F)F)n1 | 7.47
COc1cc2nn(C3CCOCC3)cc2cc1NC(=O)c1cccc(N2CCOCC2)n1 | 8.70

A. CN(C)[C@H]1CC[C@H](Nc2ncnc3ccc(-c4cncc(F)c4)cc23)CC1
B. CNc1cncc(-c2ccc3ncnc(N[C@H]4CC[C@H](N5CCC(F)CC5)CC4)c3c2)c1
C. COc1cc2nn([C@H]3CC[C@H](CN(C)CCCCC4CCN(C(=O)c5ccc(Cl)c(N6CCC(=O)NC6=O)c5)CC4)CC3)cc2cc1NC(=O)c1cccc(C(F)(F)F)n1
Task: Ascending by pIC50, please. Provide the labels, sequenced as the question asks.
Result: A, C, B
(A: 7.62, C: 8.29, B: 8.52)

###

Values of pIC50 for UniProtKB Q9NWZ3, collected from a number of published sources:
pIC50: −log10 of the molar value.
measured-property: pIC50

compound | measured-property | observed
CC(C)Oc1nc2nc(C34COC(C)(C3)C4)cn2cc1C(=O)Nc1cccn([C@@H]2CC2(C)C)c1=O (single isomer, unassigned) | pIC50 | 7.96

A. CC(C)Nc1cc(-c2cnn3cc(Cl)cnc23)ncc1C(=O)NCCCS(C)(=O)=O
B. COCCOCCOc1cc2ncn(-c3ccc(C#N)cn3)c2nc1N(C)C1CCOCC1
C. Nc1cc(N[C@@H]2C[C@H](CO)[C@@H](O)[C@H]2O)c(-c2nc3ccccc3s2)cn1
Task: Please give the order of these compounds when sorted by pIC50, largest value leading. Provide the labels, sequenced as the question asks.
Result: A, C, B
(A: 7.80, C: 6.95, B: 6.28)
